B1: library; a variant is named by its letters at N, in order (parent)
chain: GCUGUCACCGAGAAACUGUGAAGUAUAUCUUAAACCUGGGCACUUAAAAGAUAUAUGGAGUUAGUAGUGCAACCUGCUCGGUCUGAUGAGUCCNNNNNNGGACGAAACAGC

variants of: B1; assay: FACS-Seq fitted mean relative fluorescence mCherry/BFP without ligand (log10 relative fluorescence); HEK293T; ligand: cyclic di-GMP (c-di-GMP-II aptamer); higher = higher reporter protein expression; conditions: ligand present: no
Binning rule for recorded FACS-Seq fitted mean (log10): low interval = under -0.5, middle interval = from -0.5 up to -0.1, high interval = -0.1 and over

Recorded results for 3 variants are shown here.
[[record]]
variant_identifier = "CACUAA"
assigned_category = "low interval"

[[record]]
variant_identifier = "UCGCGA"
assigned_category = "middle interval"

[[record]]
variant_identifier = "AAAGUC"
assigned_category = "high interval"


API: the following record is the query input.
Field: class (FACS-Seq fitted mean (log10)) — entry: "CCAGUU"
high interval
